Data provenance: ChEMBL document CHEMBL1155971

- test-description: Bioavailability in Sprague-Dawley rat
- Assay type: ADME, organism-based
- test-settings: in vivo
observation-type: bioavailability (%)
Just the number please, in %, no unit attached.

Given item CC1(c2ccccc2)CC([C@@H]2CCC[C@H]2C(=O)NCc2ccc(OC(F)(F)F)cc2)=NO1 (mixture of isomers) , the value recorded as its bioavailability is 16

---

// pIC50 lookup, one value per entry
- target-under-test: Sodium channel protein type 9 subunit alpha (Homo sapiens, UniProt Q15858)
- test-description: Inhibition of human Nav1.7 channel expressed in HEK cells by FRET assay
- Sequence (Q15858 whole entry): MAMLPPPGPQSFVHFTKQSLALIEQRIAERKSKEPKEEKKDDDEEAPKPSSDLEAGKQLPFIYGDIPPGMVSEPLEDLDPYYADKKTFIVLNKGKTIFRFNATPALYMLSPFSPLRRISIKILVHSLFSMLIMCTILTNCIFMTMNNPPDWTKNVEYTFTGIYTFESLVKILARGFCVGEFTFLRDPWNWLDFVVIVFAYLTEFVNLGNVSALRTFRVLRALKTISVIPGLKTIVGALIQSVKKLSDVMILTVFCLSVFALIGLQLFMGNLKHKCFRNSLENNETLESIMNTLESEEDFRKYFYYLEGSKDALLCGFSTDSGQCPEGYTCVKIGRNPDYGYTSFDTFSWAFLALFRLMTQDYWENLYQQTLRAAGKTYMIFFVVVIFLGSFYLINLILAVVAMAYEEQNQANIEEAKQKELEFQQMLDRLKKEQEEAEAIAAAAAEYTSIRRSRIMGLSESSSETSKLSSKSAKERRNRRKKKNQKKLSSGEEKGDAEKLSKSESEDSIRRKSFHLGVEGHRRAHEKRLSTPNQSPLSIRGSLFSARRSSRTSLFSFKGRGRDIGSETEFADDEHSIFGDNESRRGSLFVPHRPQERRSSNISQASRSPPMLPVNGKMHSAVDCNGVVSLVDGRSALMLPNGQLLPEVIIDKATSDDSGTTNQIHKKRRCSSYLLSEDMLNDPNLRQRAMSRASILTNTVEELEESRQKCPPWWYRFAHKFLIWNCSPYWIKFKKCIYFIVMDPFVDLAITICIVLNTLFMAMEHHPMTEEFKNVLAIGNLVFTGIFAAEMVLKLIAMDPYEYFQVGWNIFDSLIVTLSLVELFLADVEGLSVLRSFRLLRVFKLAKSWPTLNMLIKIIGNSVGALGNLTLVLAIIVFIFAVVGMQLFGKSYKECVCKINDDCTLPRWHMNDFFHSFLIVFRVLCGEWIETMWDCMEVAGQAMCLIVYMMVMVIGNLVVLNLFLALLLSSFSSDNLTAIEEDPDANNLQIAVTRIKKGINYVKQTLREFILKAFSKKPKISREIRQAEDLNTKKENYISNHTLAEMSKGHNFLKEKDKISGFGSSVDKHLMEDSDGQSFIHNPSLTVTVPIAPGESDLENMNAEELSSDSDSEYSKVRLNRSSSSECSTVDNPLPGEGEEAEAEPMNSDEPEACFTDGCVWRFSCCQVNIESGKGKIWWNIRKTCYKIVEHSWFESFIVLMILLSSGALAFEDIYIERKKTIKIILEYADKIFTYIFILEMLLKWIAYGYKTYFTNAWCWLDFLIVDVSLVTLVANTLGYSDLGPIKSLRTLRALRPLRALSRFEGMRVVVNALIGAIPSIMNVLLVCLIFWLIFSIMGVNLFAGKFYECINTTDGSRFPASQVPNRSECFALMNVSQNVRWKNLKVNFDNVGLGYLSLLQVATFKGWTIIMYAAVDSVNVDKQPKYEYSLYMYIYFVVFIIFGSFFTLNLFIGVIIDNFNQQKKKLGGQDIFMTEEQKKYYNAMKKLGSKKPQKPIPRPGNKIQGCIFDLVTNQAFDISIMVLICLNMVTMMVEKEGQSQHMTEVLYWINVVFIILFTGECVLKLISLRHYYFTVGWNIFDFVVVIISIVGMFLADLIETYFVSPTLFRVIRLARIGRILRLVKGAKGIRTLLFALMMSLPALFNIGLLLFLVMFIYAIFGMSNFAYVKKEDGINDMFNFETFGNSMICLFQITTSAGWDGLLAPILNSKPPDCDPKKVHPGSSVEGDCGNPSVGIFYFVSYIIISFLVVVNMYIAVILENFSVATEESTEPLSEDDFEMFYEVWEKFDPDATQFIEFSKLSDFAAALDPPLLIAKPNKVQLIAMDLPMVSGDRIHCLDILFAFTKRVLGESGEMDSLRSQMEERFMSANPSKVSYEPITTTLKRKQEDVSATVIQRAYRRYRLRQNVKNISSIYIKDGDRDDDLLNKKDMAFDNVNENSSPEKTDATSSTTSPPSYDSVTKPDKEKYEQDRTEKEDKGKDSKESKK
Units for pIC50: none; it is -log10 of a concentration expressed in mol/L.

These recorded examples may help you get a feel for the data.
CC1(c2ccccc2)CC([C@@H]2CCC[C@H]2C(=O)NCc2ccc(OC(F)(F)F)cc2)=NO1 (mixture of isomers) | 6.21
O=C(NCc1ccc(OC(F)(F)F)cc1)[C@@H]1CCC[C@H]1C1=NOC(c2ccccc2)C1 (mixture of isomers) | 6.11
O=C(NCc1ccc(OC(F)(F)F)cc1)[C@@H]1CCC[C@H]1C1=NC(c2ccc(Cl)cc2)CO1 (mixture of isomers) | 6.01
COC(=O)c1cccc(C2CC([C@@H]3CCC[C@H]3C(=O)NCc3ccc(OC(F)(F)F)cc3)=NO2)c1 (mixture of isomers) | 6.15
CC(C)Oc1ccc(CNC(=O)[C@@H]2CCC[C@H]2C2=NOC(C)(c3ccccc3)C2)cc1 (mixture of isomers) | 5.82
CC1(c2ccccc2)CC([C@@H]2CCC[C@H]2C(=O)NCc2ccc(OC(F)(F)F)cc2)=NO1 (single isomer, unassigned; diastereomer a) | 6.02
O=C(NCc1ccc(OC(F)(F)F)cc1)[C@@H]1CCC[C@H]1C1=NCC(c2ccccc2)O1 (mixture of isomers) | 6.21
CC1(c2ccccc2)CC([C@@H]2CCC[C@H]2C(=O)NCc2ccc(C(F)(F)F)cc2)=NO1 (mixture of isomers) | 5.60
CN(Cc1ccc(-c2ccccc2S(N)(=O)=O)cc1)C(=O)[C@@H]1CCC[C@H]1C(=O)NCc1ccc(OC(F)(F)F)cc1 (relative stereo) | 6.08
CC1(c2ccccc2)CC([C@@H]2CCC[C@H]2C(=O)NCc2ccc(OC(F)(F)F)cc2)=NO1 (single isomer, unassigned; diastereomer c) | 5.92

Form field, pIC50 with Sodium channel protein type 9 subunit alpha (Homo sapiens, UniProt Q15858), item O=C(NCc1ccc(OC(F)(F)F)cc1)[C@@H]1CCC[C@H]1C1=NOC(c2ccc(OC(F)(F)F)cc2)C1 (mixture of isomers) : 6.30

// assay Sodium channel protein type 9 subunit alpha (Homo sapiens, UniProt Q15858), entry O=C(NCc1ccc(OC(F)(F)F)cc1)[C@@H]1CCC[C@H]1C1=NOC(c2cccc(Cl)c2)C1 (mixture of isomers) , pIC50 value = 6.32

With Sodium channel protein type 9 subunit alpha (Homo sapiens, UniProt Q15858) as the test system, COC(=O)c1ccc(C2CC([C@@H]3CCC[C@H]3C(=O)NCc3ccc(OC(F)(F)F)cc3)=NO2)cc1 (mixture of isomers) showed pIC50 of 6.47

The observed pIC50 for O=C(NCc1ccc(OC(F)(F)F)cc1)[C@@H]1CCC[C@H]1C1=NOC(c2ccc(Cl)cc2)C1 (mixture of isomers) when tested with Sodium channel protein type 9 subunit alpha (Homo sapiens, UniProt Q15858) stands at 6.37

---

inhibition overview
- target-under-test: Sodium channel protein type 9 subunit alpha (Homo sapiens, UniProt Q15858)
- test-description: Inhibition of human Nav1.7 channel expressed in HEK cells at 1 uM by FRET assay
- Assay type: cell-based
- test-settings: HEK293
- Sequence (Q15858 whole entry, looked up): as the sequence (Q15858 whole entry) above
Reply numerically in %, unit not repeated.

O=C(NCc1ccc(OC(F)(F)F)cc1)[C@@H]1CCC[C@H]1C1=NOC(c2ccccn2)C1 (mixture of isomers) | 0
CC1(c2ccccc2)CC([C@@H]2CCC[C@H]2C(=O)NCc2ccc(OC(F)(F)F)cc2)=NO1 (single isomer, unassigned; diastereomer c) | 48
CS(=O)(=O)c1ccc(C2CC([C@@H]3CCC[C@H]3C(=O)NCc3ccc(OC(F)(F)F)cc3)=NO2)cc1 (mixture of isomers) | 26

Note to self: inhibition of O=C(NCc1ccc(OC(F)(F)F)cc1)[C@@H]1CCC[C@H]1c1cc(-c2ccccc2)on1 (racemic) with Sodium channel protein type 9 subunit alpha (Homo sapiens, UniProt Q15858) was 38

Query O=C(NCc1ccc(OC(F)(F)F)cc1)[C@@H]1CCC[C@H]1C1=NOC(c2cccc(Cl)c2)C1 (mixture of isomers) on Sodium channel protein type 9 subunit alpha (Homo sapiens, UniProt Q15858); inhibition returned: 90

Recorded inhibition for O=C(NCc1ccc(OC(F)(F)F)cc1)[C@@H]1CCC[C@H]1C1=NOC(c2ccccc2)C1 (mixture of isomers) on Sodium channel protein type 9 subunit alpha (Homo sapiens, UniProt Q15858) was 76

Observed inhibition, Sodium channel protein type 9 subunit alpha (Homo sapiens, UniProt Q15858), Clc1cc(Cl)cc(C2CC([C@@H]3CCC[C@H]3c3cc(-c4ccccc4)on3)=NO2)c1 (mixture of isomers) : 35

---

- test-description: Plasma clearance in Sprague-Dawley rat
- Assay type: ADME, organism-based
observation-type: clearance (mL/min/kg)
Number only, in mL/min/kg; omit the unit.

So, CC1(c2ccccc2)CC([C@@H]2CCC[C@H]2C(=O)NCc2ccc(OC(F)(F)F)cc2)=NO1 (mixture of isomers) ? Its clearance was 17.8

---

- test-description: Half life in Sprague-Dawley rat
- Assay type: ADME, organism-based
- test-settings: in vivo
observation-type: half-life (h)
Provide the reading as a plain figure in h.

Record CC1(c2ccccc2)CC([C@@H]2CCC[C@H]2C(=O)NCc2ccc(OC(F)(F)F)cc2)=NO1 (mixture of isomers) . Reported half-life: 2.9

---

Listed next: entries and their corresponding inhibition.
- target-under-test: Sodium channel protein type 9 subunit alpha (Homo sapiens)
- test-description: Inhibition of human Nav1.7 channel expressed in HEK cells at 1 uM by FRET assay
- Type: cell-based
- test-settings: HEK293

Some entries whose results are on file:
CC1(c2ccccc2)CC([C@@H]2CCC[C@H]2C(=O)NCc2ccc(OC(F)(F)F)cc2)=NO1 (mixture of isomers) | 63%
CC1(c2ccccc2)CC([C@@H]2CCC[C@H]2C(=O)NCc2ccc(OC(F)(F)F)cc2)=NO1 (single isomer, unassigned; diastereomer b) | 37%
CC(C)(C)Oc1ccc(CNC(=O)[C@@H]2CCC[C@H]2C2=NOC(C)(c3ccccc3)C2)cc1 (mixture of isomers) | 26%
CC1(c2ccccc2)CC([C@@H]2CCC[C@H]2C(=O)NCc2ccc(Cl)cc2)=NO1 (mixture of isomers) | 15%
COC(=O)c1cccc(C2CC([C@@H]3CCC[C@H]3C(=O)NCc3ccc(OC(F)(F)F)cc3)=NO2)c1 (mixture of isomers) | 75%
O=C(NCc1ccc(OC(F)(F)F)cc1)[C@@H]1CCC[C@H]1C1=NOC(CO)(c2ccccc2)C1 (mixture of isomers) | 23%
NC(=O)c1ccc(C2CC([C@@H]3CCC[C@H]3C(=O)NCc3ccc(OC(F)(F)F)cc3)=NO2)cc1 (mixture of isomers) | 0%
CNC(=O)c1ccc(C2CC([C@@H]3CCC[C@H]3C(=O)NCc3ccc(OC(F)(F)F)cc3)=NO2)cc1 (mixture of isomers) | 14%

# inhibition of O=C(NCc1ccc(OC(F)(F)F)cc1)[C@@H]1CCC[C@H]1C1=NOC(c2ccc(Cl)cc2)C1 (mixture of isomers) = 92%

The molecule CC1(c2ccccc2)CC([C@@H]2CCC[C@H]2C(=O)NCc2ccc(OC(F)(F)F)cc2S(C)(=O)=O)=NO1 (mixture of isomers) showed inhibition equal to 13%

inhibition measured on CC1(c2ccccc2)CC([C@@H]2CCC[C@H]2C(=O)NCc2ccccc2)=NO1 (mixture of isomers) = 19%

---

Catalogue of inhibition readings, one per entry.
- target-under-test: Sodium channel protein type 9 subunit alpha (Homo sapiens)
- test-description: Inhibition of human Nav1.7 channel expressed in HEK cells at 1 uM by FRET assay
- Type: cell-based
- test-settings: HEK293
Just the number please, in %, no unit attached.

The examples below pair each entry with its known result.
CS(=O)(=O)c1ccc(C2CC([C@@H]3CCC[C@H]3c3cc(-c4ccccc4)on3)=NO2)cc1 (mixture of isomers) | 43
O=C(NCc1ccc(OC(F)(F)F)cc1)[C@@H]1CCC[C@H]1C1=NCC(c2ccccc2)O1 (mixture of isomers) | 71
FC(F)(F)Oc1ccc(C2CC([C@@H]3CCC[C@H]3c3cc(-c4ccccc4)on3)=NO2)cc1 (mixture of isomers) | 18
O=C(NCc1ccc(OC(F)(F)F)cc1)[C@@H]1CCC[C@H]1C1=NOC(c2ccc(OC(F)(F)F)cc2)C1 (mixture of isomers) | 93
c1ccc(-c2cc([C@@H]3CCC[C@H]3C3=NOC(c4ccccc4)C3)no2)cc1 (mixture of isomers) | 13

In plain terms, O=C(NCc1ccc(OC(F)(F)F)cc1)[C@@H]1CCC[C@H]1c1ncc(-c2ccccc2)o1 (racemic) has a documented inhibition of 0

inhibition for CC1(c2ccccc2)CC([C@@H]2CCC[C@H]2C(=O)NCc2ccc(-c3ccccc3S(C)(=O)=O)cc2)=NO1 (mixture of isomers) is 0
